tested on: JAK1(JH1domain-catalytic); conditions: concentration: 1 μM, replicates: in singlicate; n = 1;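 also: KINOMEscan kinase panel screen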
parameter: %Inh (%)
Reply with just the number (in %).

// solved cases for %Inh follow
[[record]]
smi = "Cn1cc(-c2ccc3c(c2)CCN3C(=O)Cc2ccccc2Cl)c2c(N)ncnc21"
unit = "%"
test_value = 0

[[record]]
smi = "N#Cc1c(N2CCOCC2)sc(-c2ccn[nH]2)c1-c1ccc(Cl)cc1"
unit = "%"
test_value = 0


Turning now to a further record.
Prompt: # get_value(readout='%Inh', item= O=C1Cc2cc(Nc3nc(NCc4cccc(S(=O)(=O)C(F)(F)F)c4)ncc3C(F)(F)F)ccc2N1 )
Completion: 28

---

Listing of entries alongside the reported %Inh.
test system: BRSK2; settings: concentration: 1 μM, replicates: in singlicate; n = 1
Dear colleague, please return just the value in %, with no unit written.

[[record]]
compound = "O=C(Nc1n[nH]c2cc(-c3cccc(F)c3)ccc12)C1CC1 [SB-735464]"
test_value = 33

[[record]]
compound = "Cc1nnc(-c2ccc3ncc(-c4ccc(S(C)=O)cc4)n3c2)o1 (stereo not shown)"
test_value = 0

[[record]]
compound = "c1ccc(-c2cc(-c3c[nH]nc3-c3ccccn3)ccn2)cc1 [GW576604]"
test_value = 0

[[record]]
compound = "Fc1ccc(-c2ncn(CCCN3CCOCC3)c2-c2cccnc2)cc1 [SB-211743]"
test_value = 4

[[record]]
compound = "O=c1cc(N2CCOCC2)nc2n(Cc3cccc4ccccc34)ccn12 [GSK2333389]"
test_value = 0

[[record]]
compound = "c1ccc(-c2n[nH]cc2-c2ccnc3ccccc23)nc1 [GW271431]"
test_value = 0

[[record]]
compound = "COc1ccc(Nc2ncc(C#N)c(Nc3ccccc3C(N)=O)n2)cc1N1CCN(C)CC1.Cl [GSK1558669]"
test_value = 88

[[record]]
compound = "O=C1Cc2cc(Nc3nc(NCc4cccc(S(=O)(=O)C(F)(F)F)c4)ncc3C(F)(F)F)ccc2N1"
test_value = 0

[[record]]
compound = "O=C(Nc1cccc(-c2nn3ncccc3c2-c2ccnc(Nc3cccc(C(F)(F)F)c3)n2)c1)c1c(F)cccc1F [GSK299495]"
test_value = 0

[[record]]
compound = "CC(=O)Nc1ccc(COc2ccc(Nc3ccnc4cc(-c5ccccn5)ccc34)cc2)cc1.Cl [GW440148]"
test_value = 0


Prompt: // map CN(C1=C(c2ccccc2)C(=O)NC1=O)c1ccccc1 [SB-334860] to recorded %Inh (system: BRSK2)
Completion: 0

Prompt: Next compound: COC(=O)Nc1nc2cc(Oc3ccc(NC(=O)Nc4cc(F)ccc4F)cc3)ccc2[nH]1.Cl [GW701424]
Completion: 0

Prompt: Next compound up: Cc1cccc(Cn2ccn3c(=O)cc(N4CCOCC4)nc23)c1 [GSK2297542]
Completion: 6

---

Reported values of %Inh for individual entries
test system: MLK3; settings: concentration: 1 μM, replicates: in singlicate; n = 1
Expressed in %, but write only the number.

[[record]]
molecule = "c1ccc(-c2cc(-c3c[nH]nc3-c3ccccn3)ccn2)cc1 [GW576604]"
test_value = 0

[[record]]
molecule = "CCCCCc1nc2c(N)ncnc2n1CCCCC [SKF-97255]"
test_value = 0

[[record]]
molecule = "Cc1c(Cn2c(C)nn3c(=O)cc(N4CCOC(C)C4)nc23)cccc1C(F)(F)F (stereo not shown) [GSK2344444]"
test_value = 13

[[record]]
molecule = "O=c1cc(N2CCOCC2)nc2n(Cc3cccc(C(F)(F)F)c3)ccn12 [GSK2297543]"
test_value = 19

[[record]]
molecule = "Fc1ccc(-c2nn3c(OCC(F)(F)F)cccc3c2-c2ccncc2)cc1 [GW514784]"
test_value = 0

[[record]]
molecule = "Nc1nc(-c2ccc3c(N)n[nH]c3c2)cc(N2CCCC2)n1 [GSK2227430]"
test_value = 0


Prompt: For MLK3, provide %Inh of CCc1nc(-c2cccc(C)c2)c(-c2ccnc(NCc3ccccc3)c2)s1 please.
Completion: 0

Prompt: Subsequent entry: Cc1cccc(-c2nc(Nc3ccc4ncsc4c3)c3ccccc3n2)n1 [GW867588]
Completion: 1

---

test system: SBK1; conditions: concentration: 1 μM, replicates: in singlicate; n = 1
Simple rule here: %Inh less than 1% is rule met, otherwise rule not met.

As a guide, the following entries are already answered.
[[record]]
smi = "N#Cc1c(N2CCOCC2)sc(-c2ccn[nH]2)c1-c1ccc(Cl)cc1"
assigned_category = "rule not met"

[[record]]
smi = "Nc1nc(-c2ccc3c(N)n[nH]c3c2)cc(N2CCCC2)n1"
assigned_category = "rule not met"

[[record]]
smi = "c1ccc(-c2cc(-c3c[nH]nc3-c3ccccn3)ccn2)cc1"
assigned_category = "rule met"


Prompt: Decide: %Inh of CN(C1=C(c2ccccc2)C(=O)NC1=O)c1ccccc1 strictly below 1%?
Completion: rule not met

Prompt: // query: Cc1ccc(C(=O)NCC(N)=O)cc1-n1c(C)cc(OCc2ccc(F)cc2F)c(Br)c1=O
Completion: rule met

Prompt: Moving on to COc1cc2c(cc1OCCN1CCN(C)CC1)ncc1c3ccc(C#N)cc3[nH]c21
Completion: rule not met

---

system: NEK5; details: concentration: 1 μM, replicates: in singlicate; n = 1
parameter: %Inh

Guide cases for %Inh, answers given:
[[record]]
molecule = "CN(C1=C(c2ccccc2)C(=O)NC1=O)c1ccccc1"
test_value = "23%"

[[record]]
molecule = "CN1c2ccc(CNc3ccc(F)cc3)cc2-c2c(cnn2C)S1(=O)=O"
test_value = "0%"

[[record]]
molecule = "O=C(NCCNc1ccnc(Nc2ccc(F)cc2)n1)c1cc2ccccc2s1"
test_value = "0%"

[[record]]
molecule = "COc1ccc(COc2cc(-n3cnc4ccccc43)sc2C(N)=O)cc1"
test_value = "7%"


Prompt: Given the entry N#Cc1ccc(-c2cc(-c3c[nH]nc3-c3ccccn3)ccn2)cc1 , report its measured %Inh.
Completion: 5%

Prompt: Next entry: c1ccc(-c2n[nH]cc2-c2ccnc3ccccc23)nc1
Completion: 22%

Prompt: What do we get for COc1ccc(CNC(=O)NC2CCN(c3ccnc(Nc4ccc(OC)cc4)n3)C2)cc1 (stereo not shown) ?
Completion: 13%

---

system: FGFR1; settings: concentration: 1 μM, replicates: in singlicate; n = 1
Parameter %Inh: see the listing below.
Entry rule: numbers only, all in %.

Please review the following examples before continuing.
[[record]]
compound = "Cc1cccc(Cn2ccn3c(=O)cc(N4CCOCC4)nc23)c1 [GSK2297542]"
parameter = "%Inh"
test_value = 0

[[record]]
compound = "CNc1ncnc2[nH]ncc12 [SKF-18355]"
parameter = "%Inh"
test_value = 0


Next compound, %Inh to be filled in.
Prompt: I have this compound here, Cn1cc(-c2ccc3c(c2)CCN3C(=O)Cc2ccccc2Cl)c2c(N)ncnc21 [GSK2608885] , and I need its recorded %Inh.
Completion: 59

---

system: SGK3; settings: concentration: 1 μM, replicates: in singlicate; n = 1
%Inh: recorded values
Hi! Could you send only the number? It should be in %, unit omitted.

[[record]]
molecule = "CC(C)Oc1ccc2c(-c3ccnc(Nc4ccc(N5CCN(C)CC5)cc4)n3)cnn2n1"
unit = "%"
test_value = 58

[[record]]
molecule = "Fc1ccc(-c2ncn(CCCN3CCOCC3)c2-c2ccccn2)cc1"
unit = "%"
test_value = 0

[[record]]
molecule = "[2H]C([2H])(c1cccc(C(F)(F)F)c1C)n1ccn2c(=O)nc(N3CCOCC3)cc12"
unit = "%"
test_value = 0

[[record]]
molecule = "N#Cc1c(N2CCOCC2)sc(-c2ccn[nH]2)c1-c1ccc(Cl)cc1"
unit = "%"
test_value = 8

[[record]]
molecule = "COc1ccc(COc2cc(-n3cnc4ccccc43)sc2C(N)=O)cc1"
unit = "%"
test_value = 1

[[record]]
molecule = "CN1c2ccc(NCc3ccc(F)cc3)cc2-c2c(cnn2C)S1(=O)=O"
unit = "%"
test_value = 4

[[record]]
molecule = "Cc1cn2c(=O)cc(N3CCOCC3)nc2n1Cc1cccc(Cl)c1Cl"
unit = "%"
test_value = 0

[[record]]
molecule = "CCCCCc1nc2c(N)ncnc2n1CCCCC"
unit = "%"
test_value = 0

[[record]]
molecule = "Cl.Oc1cccc(Nc2ccnc3cc(-c4ccncc4)ccc23)c1"
unit = "%"
test_value = 3

[[record]]
molecule = "Cc1c2ccc(N(C)c3ccnc(Nc4cccc(S(N)(=O)=O)c4)n3)cc2nn1Cc1ccccc1.Cl.Cl"
unit = "%"
test_value = 0


Prompt: Need %Inh of Cc1nnc(-c2ccc3ncc(-c4ccc(S(C)=O)cc4)n3c2)o1 (stereo not shown) , thanks.
Completion: 0

Prompt: Another molecule: Fc1ccc(-c2ncn(CCCN3CCOCC3)c2-c2cccnc2)cc1
Completion: 0

Prompt: Query Cc1ccc(NC(=O)c2ccnc(N3CCN(C)CC3)c2)cc1-c1ccc(C(=O)NCC2CC2)cc1 next
Completion: 0
